Numbers sourced from patent US20220177581A1.

Biological target: T1, CD22 (antigen in the Biacore assay) (human, UniProt P20273 20-687, limits assumed)
T1 sequence: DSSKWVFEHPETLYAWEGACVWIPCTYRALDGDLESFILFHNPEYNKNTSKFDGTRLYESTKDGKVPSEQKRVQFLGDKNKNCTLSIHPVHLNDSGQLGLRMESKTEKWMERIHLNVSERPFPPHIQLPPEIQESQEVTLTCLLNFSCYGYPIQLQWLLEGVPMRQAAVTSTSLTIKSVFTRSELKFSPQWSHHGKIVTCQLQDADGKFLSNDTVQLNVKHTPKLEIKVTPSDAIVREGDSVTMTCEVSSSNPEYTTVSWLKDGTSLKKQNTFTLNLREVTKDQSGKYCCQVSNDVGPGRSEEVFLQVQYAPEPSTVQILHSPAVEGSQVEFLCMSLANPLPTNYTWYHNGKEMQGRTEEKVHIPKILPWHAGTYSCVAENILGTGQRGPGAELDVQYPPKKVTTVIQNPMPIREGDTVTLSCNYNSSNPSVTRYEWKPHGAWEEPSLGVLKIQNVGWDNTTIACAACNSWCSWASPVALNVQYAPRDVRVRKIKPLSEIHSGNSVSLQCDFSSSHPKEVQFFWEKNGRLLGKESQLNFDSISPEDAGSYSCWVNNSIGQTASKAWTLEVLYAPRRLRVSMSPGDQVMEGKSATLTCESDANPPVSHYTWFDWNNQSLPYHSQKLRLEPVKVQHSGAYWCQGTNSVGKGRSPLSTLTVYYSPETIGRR
Test: SPR (Biacore) at 37° C
Parameter Measured: koff (s⁻¹)
Your answer is read as s⁻¹, so omit the unit and give the number.

Worked set:
Binder	koff [s⁻¹]
humanized LL2 L1 + H2 (antibody, V domains shown, Human IgG1 frameworks; also called H2L1) VH: QVQLQESGAEVKKPGASVKMSCKASGYTFTSYWLHWIRQAPGQRLEWIGYINPRNDYTKYSQKFQGRVTLTRDKSASTAYMELSSLRSEDTAVYYCARRDITTFYWGQGTTLTVSS VL: DIVLTQSPDSLAVSAGERVTMNCKSSQSVLYSANHKNYLAWYQQKPGQPPKLLIYWASTRESGVPDRFSGSGSGTDFTLTISSVQAEDVAIYYCHQYLSSWTFGGGTKLEIK	0.00478
chimeric LL2 antibody (antibody, V domains shown, Murine LL2 variable domains with human constant domains (IgG1)) VH: QVQLQESGAELSKPGASVKMSCKASGYTFTSYWLHWIKQRPGQGLEWIGYINPRNDYTEYNQNFKDKATLTADKSSSTAYMQLSSLTSEDSAVYYCARRDITTFYWGQGTTLTVSS VL: DIQLTQSPSSLAVSAGENVTMSCKSSQSVLYSANHKNYLAWYQQKPGQSPKLLIYWASTRESGVPDRFTGSGSGTDFTLTISRVQVEDLAIYYCHQYLSSWTFGGGTKLEIK	2.31e-07
humanized LL2 L1 + H10 (antibody, V domains shown, Human IgG1 frameworks; also called H10L1) VH: QVQLVQSGAEVKKPGASVKVSCKASGYTFTSYWLHWVRQAPGQRLEWMGYINPRNDYTEYNQNFKDRVTLTADKSASTAYMELSSLRSEDTAVYYCARRDITTFYWGQGTTLTVSS VL: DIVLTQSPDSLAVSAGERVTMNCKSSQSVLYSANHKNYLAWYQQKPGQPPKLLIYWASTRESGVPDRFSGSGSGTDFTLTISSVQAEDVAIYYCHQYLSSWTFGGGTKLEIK	7.67e-09

# input Fill in the blank: the reported koff of humanized LL2 L1 + H6 (antibody, V domains shown, Human IgG1 frameworks; also called H6L1) VH: QVQLQQSGAEVKKPGASVKVSCKASGYTFTSYWLHWIRQAPGQRLEWMGYINPRNDYTEYNQNFKDRVTITRDTSASTAYMELSSLRSEDTAVYYCARRDITTFYWGQGTTLTVSS VL: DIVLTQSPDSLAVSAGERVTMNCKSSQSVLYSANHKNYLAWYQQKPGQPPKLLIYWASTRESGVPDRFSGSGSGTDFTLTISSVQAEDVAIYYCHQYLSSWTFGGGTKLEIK is ____.
# output 2.91e-08
